Values from patent US20250288584A1

- ASSAY REMARKS: Minimal motor impairment (rotarod)
- Assay type: in vivo, mice
- COND: 20 mg/kg s.c., 0.5 h; 32 mA group
REPORTED PROPERTY: # rotarod motor impairment/# tested

Use these answered entries as a reference point.
CCCCn1ccc(N2CCC(c3ccc(F)cc3F)CC2)c(Cl)c1=O | 1/4
Cc1cc(-c2nc(CN3CCNCC3)no2)cc2c1C(=O)N(Cc1ccc(OC(F)(F)F)cc1)C2 [CAS 1092453-15-0, reference compound] | 0/4

The measured # rotarod motor impairment/# tested associated with N[C@@]1(C(=O)O)CS(=O)(=O)[C@H]2[C@H](C(=O)O)[C@H]21 [LY-404039, reference compound] reads 1/8

The measured # rotarod motor impairment/# tested associated with CCCCn1ccc(N2CCC(c3ccccc3)CC2)c(Cl)c1=O reads 3/8

The measured # rotarod motor impairment/# tested associated with Fc1ccc(N2CCN(Cc3ccn4c(CC5CC5)nnc4c3C(F)(F)F)CC2)c(F)c1 reads 1/8

###

- ASSAY REMARKS: Plasma and brain levels (pK/pD analysis)
- Format: in vivo, mice
- COND: mouse, plasma, intraperitoneal, LEV 10 mg/kg combined with Co. No. 1 2.5 mg/kg; read-out: Mean Plasma Level LEV
REPORTED PROPERTY: concentration at 1 h

The measured concentration at 1 h associated with CC[C@@H](C(N)=O)N1CCCC1=O [LEV, (S)-2-(2-oxopyrrolidin-1-yl) butanamide, reference compound] reads 10300 ng/mL

###

- ASSAY REMARKS: Plasma and brain levels (pK/pD analysis)
- Assay type: in vivo, mice
- COND: mouse, brain, intraperitoneal, LEV 10 mg/kg combined with Co. No. 2 3 mg/kg; read-out: Mean Brain Level LEV
REPORTED PROPERTY: concentration at 1 h (ng/mL)
Answer in ng/mL, number only, no unit symbol.

The measured concentration at 1 h associated with CC[C@@H](C(N)=O)N1CCCC1=O [LEV, (S)-2-(2-oxopyrrolidin-1-yl) butanamide, reference compound] reads 5880

###

- ASSAY REMARKS: Plasma and brain levels (pK/pD analysis)
- Format: in vivo, mice
- COND: mouse, plasma, subcutaneous, 5 mg/kg, 5 mg/kg s.c.; 44 mA group; read-out: Co. No. 25-a mean plasma levels
- Procedure: In various tests, animals were sacrificed following testing, and trunk blood and/or brain tissue (whole brains) was collected for quantification of drug levels. Immediately after testing, animals were decapitated and trunk blood was collected into a BD Vacutainer® tube containing K2EDTA and chilled on ice until centrifugation. Following centrifugation (13000-18000 rpm, 5-7 min), the plasma was removed and transferred to a labeled microcentrifuge tube and stored at −80° C. […]
REPORTED PROPERTY: concentration at 0.25 h (ng/mL)
Answer in ng/mL, number only, no unit symbol.

The measured concentration at 0.25 h associated with CCCCn1ccc(N2CCC(c3ccc(F)cc3F)CC2)c(Cl)c1=O reads 1430

###

- ASSAY REMARKS: Plasma and brain levels (pK/pD analysis)
- Format: in vivo, mice
- COND: mouse, plasma, subcutaneous, 20 mg/kg, 20 mg/kg s.c., 4 h; 32 mA group; read-out: Co. No. 25-a mean plasma levels
REPORTED PROPERTY: concentration at 4 h (µg/mL)
Answer in µg/mL, number only, no unit symbol.

The measured concentration at 4 h associated with CCCCn1ccc(N2CCC(c3ccc(F)cc3F)CC2)c(Cl)c1=O reads 0.028
